assay: Cytotoxicity against human HepG2 cells assessed as reduction in cell viability after 72 hrs by fluorescein diacetate dye based fluorometric microculture assay; type: toxicity
IC50 at 72 h less than 10 µM is Criterion met; IC50 at 72 h greater than or equal to 10 µM is Criterion not met.

Decide: IC50 at 72 h of CCCCCCc1ccc(-c2ccc(C(=O)N3CCC[C@H]3C(=O)N[C@H](C(=O)N[C@@H](C)C(=O)N[C@@H](CC(N)=O)C(=O)N[C@@H](C)B3O[C@@H]4C[C@@H]5C[C@@H](C5(C)C)[C@]4(C)O3)[C@H](C)O)cc2)cc1 strictly below 10 µM?
Criterion met

Please check: IC50 at 72 h for CCCCCCc1ccc(-c2ccc(C(=O)N3CC(CN)C[C@H]3C(=O)N[C@H](C(=O)N[C@@H](C)C(=O)N[C@@H](CC(N)=O)C(=O)N[C@@H](C)B(O)O)[C@H](C)O)cc2)cc1 (some centres not stated) , strictly under 10 µM or not?
Criterion not met

# strict comparison: is reported IC50 at 72 h < 10 µM? input = CCCCc1ccc(-c2ccc(C(=O)N[C@@H](CCN)C(=O)N[C@H](C(=O)N[C@@H](C)C(=O)N[C@@H](CCCCN)C(=O)N[C@@H](C)B3O[C@@H]4C[C@@H]5C[C@@H](C5(C)C)[C@]4(C)O3)[C@H](C)O)cc2)cc1
Criterion not met

Does CC(O)[C@H](NC(=O)[C@@H]1CCCN1)C(=O)N[C@@H](C)C(=O)N[C@@H](CC(N)=O)C(=O)N[C@@H](C)B1O[C@@H]2C[C@@H]3C[C@@H](C3(C)C)[C@]2(C)O1 (single isomer, unassigned) have IC50 at 72 h strictly under 10 µM?
Criterion not met

Hello, is IC50 at 72 h of the following compound strictly smaller than 10 µM? CCCCCCCCCC(=O)N1CCC[C@H]1C(=O)N[C@H](C(=O)N[C@@H](C)C(=O)N[C@@H](CC(N)=O)C(=O)N[C@@H](C)B1O[C@@H]2C[C@@H]3C[C@@H](C3(C)C)[C@]2(C)O1)[C@H](C)O
Criterion met

Is the reported IC50 at 72 h for CCCCCCc1ccc(-c2ccc(C(=O)N3CC(CN)C[C@H]3C(=O)N[C@H](C(=O)N[C@@H](C)C(=O)N[C@@H](CC(N)=O)C(=O)N[C@@H](C)B3O[C@@H]4C[C@@H]5C[C@@H](C5(C)C)[C@]4(C)O3)[C@H](C)O)cc2)cc1 (some centres not stated) strictly below 10 µM?
Criterion not met

Determine if CCCCCCc1ccc(-c2ccc(C(=O)N3CCC[C@H]3C(=O)N[C@H](C(=O)N[C@@H](C)C(=O)N[C@@H](CC(N)=O)C(=O)N[C@@H](C)B(O)O)[C@H](C)O)cc2)cc1 shows IC50 at 72 h strictly lower than 10 µM.
Criterion not met

----------
Please go through the items and note down their inhibition.
biological target: Signal peptidase I (Escherichia coli K-12); experiment: Inhibition of full length Escherichia coli His6-tagged LepB expressed in Escherichia coli C43(DE3) at 100 uM using dabcyl-VEVGGTATAGAFSRPGLE-(EDANS) as substrate preincubated for 10 mins followed by substrate addition measured for 2 hrs by FRET assay relative to control

Determine from records and report inhibition for CCCCCCCCCC(=O)N1CCC[C@H]1C(=O)N[C@H](C(=O)N[C@@H](C)C(=O)N[C@@H](CC(N)=O)C(=O)N[C@@H](C)C(=O)C(=O)NC(C)(C)C)[C@H](C)O
31.5%

Give the reported value of inhibition for this record: CCCCCCc1ccc(-c2ccc(C(=O)N3CC(CN)C[C@H]3C(=O)N[C@H](C(=O)N[C@@H](C)C(=O)N[C@@H](CC(N)=O)C(=O)N[C@@H](C)B(O)O)[C@H](C)O)cc2)cc1 (stereo partly drawn)
> 50%

Provide only the value of recorded inhibition for CCCCCCCCCC(=O)N1CCC[C@H]1C(=O)N[C@H](C(=O)N[C@@H](C)C(=O)N[C@@H](CC(N)=O)C(=O)N[C@@H](C)B1O[C@@H]2C[C@@H]3C[C@@H](C3(C)C)[C@]2(C)O1)[C@H](C)O
> 50%
